- TEST NAME: folding stability dG unfold from trypsin proteolysis; higher = more stable
Can you tell me folding stability dG unfold for the items I'm about to list?
Numbers only, in kcal/mol.

- MACROMOLECULE SEQUENCE: "SAGGSAGGSAGMRKVVTGKEAVVKLTGIPPEVLEAMSEEELRALVAPLVEAGKVDEIELKSAGGSAGGSAGG [r11_80_JUSTAS]"
  UNIT STRING: "kcal/mol"
  folding stability dG unfold: -0.0624
- MACROMOLECULE SEQUENCE: "SAMKITIEEVEVKEGDTVTIRIDASEEELENFLKELAEKLGAEVVEVEVKKNENGSLEVTVKVKEVKKPSAG [r14_655_TrROS_Hall]"
  UNIT STRING: "kcal/mol"
  folding stability dG unfold: 1.2
- MACROMOLECULE SEQUENCE: "SAKVITIKLKIKVKTEEELEKAKELADELAKKLAEEGKKVKVEVVKIEVEENENGEKTVTIEIKIYLEPSAG [r14_48_TrROS_Hall]"
  UNIT STRING: "kcal/mol"
  folding stability dG unfold: 3.36
- MACROMOLECULE SEQUENCE: "SAGGSAGGSTVEEIADFFKQQGFTDAEINVMPPPNGRRYVTVRFEMKEPNGNKHKMNFSIWIPSAGGSAGGS [r12_246_TrROS]"
  UNIT STRING: "kcal/mol"
  folding stability dG unfold: 2.53
- MACROMOLECULE SEQUENCE: "SAGGSLRQLIRALFKKKGIPIEPEKVDPNWVTFKVPNKDVKIDLPDGNKIEIKPNGYVRIRIPPDDLSAGGS [r8_297_TrROS]"
  UNIT STRING: "kcal/mol"
  folding stability dG unfold: -0.172

Could I get folding stability dG unfold for every one of these entries?
1. SAGGSAGGSKKEYLVLVYNPATGEPFPILAPDDVPFEELAKKIADEILKGLPKDVKIEFVKLGSAGGSAGGS [r20_213_TrMRF]
2. SAGSKELVIVEKDEPVEGETLDYTNGKKKKFPKKVPVVKEIVLPKNSPEAEKIAKELSPPNVKVEILAKSAG [r5_468_JUSTAS]

Out:
1. 0.808
2. -1.08

Could I get folding stability dG unfold for every one of these entries?
1. SAGGLDSAPPVEVKVEVEEEKTKDPNSDSEVTKYKITVTTTVGGTPIVTEEESIVYKKPDGTIIVEKKSAGG [r19_260_JUSTAS]
2. SAGGSAGGSMEELPEGAELIREEDGVAVVRNENGELLVVRRVDGKLEVRRFPPGMSIEEALAKSAGGSAGGS [r12_605_TrROS_Hall]

Out:
-0.403
2.95

Hey, just so you know, these numbers are from the supplement of paper PMC12764529.
